Target chain: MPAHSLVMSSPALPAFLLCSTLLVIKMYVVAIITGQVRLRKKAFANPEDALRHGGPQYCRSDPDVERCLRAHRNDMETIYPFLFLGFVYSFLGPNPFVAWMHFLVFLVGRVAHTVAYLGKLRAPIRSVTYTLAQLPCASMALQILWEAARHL
pIC50: −log10 of the molar value.
Measured property: pIC50

Worked examples, 5 compounds total:
1. O=C(NCc1ccc(Cl)c(-c2nc(O)nc(-c3cccc(OC(F)(F)F)c3)n2)c1)C1(C(F)(F)F)CCCC1 8.66
2. Cc1cc(-c2nc(O)nc(-c3cc(CNC(=O)C(C)(C)C(F)(F)F)ccc3Cl)n2)ccc1OCC1CC1 8.89
3. CC(C)(C)C(=O)NCc1ccc(Cl)c(-c2nc(O)nc(-c3ccc(C(F)(F)F)cc3)n2)c1 9.22
4. CCc1cccc(-c2nc(O)nc(-c3cc(CNC(=O)C(C)(C)C(F)(F)F)ccc3Cl)n2)c1 9.05
5. CO[C@](C)(C(=O)NCc1ccc(Cl)c(-c2nc(O)nc(-c3ccc(C(F)(F)F)cc3)n2)c1)C(F)(F)F 9.10

a. Cc1cccc(C)c1-c1nc(O)nc(-c2ccccc2)n1
b. COC(C)(C)C(=O)NCc1ccc(Cl)c(-c2nc(O)nc(-c3ccc(C(F)(F)F)cc3)n2)c1
## Input Hi there, can you help? I need to know whether a or b has lower measured pIC50. Please reply using the label of the selected record.
## Output a
(a: 4.67, b: 9.22)

---

Target or system: human mPGES-1 (Homo sapiens, UniProt O14684)
Construct: made in house; host or cells: FreeStyle CHO-S cells (Chinese hamster ovary), transient transfection with pcDNA3.1(+)/human mPGES-1; microsome fraction used
Method description: Evaluation of human mPGES-1 enzyme inhibitory activity (PGE2 measured by HTRF, microsome fraction of CHO-S cells expressing human mPGES-1)
Type: biochemical
Stated conditions: at 30 μM test article
Measured property: inhibition at 30 µM (%)

Worked examples, 3 compounds total:
1) Cc1cccc(C)c1-c1nc(O)nc(-c2cccc(O)c2)n1 43
2) Cc1ccc(C(N)=O)cc1-c1nc(O)nc(-c2ccc(C(F)(F)F)cc2)n1 42
3) O=C(O)c1ccc(Cl)c(-c2nc(O)nc(-c3ccc(OCC4CC4)cc3)n2)c1 41

1. CCC(=O)N(CC)Cc1ccc(Cl)c(-c2nc(O)nc(-c3ccccc3)n2)c1
2. Cc1ccc(C(=O)O)cc1-c1nc(O)nc(-c2ccc(C(F)(F)F)cc2)n1
3. Cc1cccc(C)c1-c1nc(O)nc(-c2ccc(O)cc2)n1
## Input Arrange these compounds by their inhibition at 30 µM, starting with the largest number. Reply with the item labels sorted in the order that was asked for.
## Output 1, 3, 2

---

Target or system: human mPGES-1 (Homo sapiens)
Measured property: IC50 (nM)

Worked examples, 5 compounds total:
1. CO[C@](C)(C(=O)NCc1ccc(Cl)c(-c2nc(O)nc(-c3ccc(OCC4CC4)cc3)n2)c1)C(F)(F)F 1.2
2. OCCOc1cccc(Cl)c1-c1nc(O)nc(-c2ccc(C(F)(F)F)cc2)n1 219
3. CC(C)(C)COc1ccc(-c2nc(O)nc(-c3cc(CO)ccc3Cl)n2)cc1 5.3
4. CN(Cc1ccc(Cl)c(-c2nc(O)nc(-c3ccc(OCC(C)(C)C)cc3)n2)c1)C(=O)C(C)(C)C(F)(F)F 42
5. Cc1cc(-c2nc(O)nc(-c3cc(CNC(=O)C(C)(C)C(F)(F)F)ccc3Cl)n2)cc(C)c1OCC1CC1 1.8

I. CO[C@](C)(C(=O)NCc1ccc(Cl)c(-c2nc(O)nc(-c3ccc(F)c(C4CC4)c3)n2)c1)C(F)(F)F
II. OCc1ccc(Cl)c(-c2nc(O)nc(-c3ccc(C(F)(F)F)cc3)n2)c1
## Input Hi there, can you help? I need to know whether I or II has lower measured IC50. Please reply using the label of the selected record.
## Output I
